Protocol: solubility in organic solvents
Format: physicochemical
Assay Conditions: organic solvent or mixture; in ethanol
Measurement Kind: solubility

>  <Molecule>
O=C(/C=C/CCCCCCCCC(=O)NCCO)NCCO

>  <Measurement Kind>
solubility

>  <Observed Value>
> 10000 µg/mL

$$$$
>  <Molecule>
O=C(NCCO)c1ccccc1C(=O)NCCO

>  <Measurement Kind>
solubility

>  <Observed Value>
> 10000 µg/mL

$$$$
>  <Molecule>
O=C(CC(=O)NCCO)NCCO [(7), N,N' -(2-hydroxyethyl)-malondiamide]

>  <Measurement Kind>
solubility

>  <Observed Value>
> 10000 µg/mL

$$$$

###

Protocol: solubility in organic solvents
Type: physicochemical
Assay Conditions: organic solvent or mixture; solvent not stated
Measurement Kind: solubility

>  <Compound>
O=C(CCCCCCCC(=O)NCCO)NCCO [(3), N,N'-bis-(2-hydroxyethyl)-nonandiamide]

>  <Observed Value>
> 10000 µg/mL

$$$$

###

solubility values for the compounds below.
Protocol: solubility in organic solvents
Assay type: physicochemical
Assay Conditions: organic solvent or mixture; in DMSO
Measurement Kind: solubility

>  <Compound>
O=C(CC(O)C(=O)NCCO)NCCO (racemic)

>  <Observed Value>
> 10000 µg/mL

$$$$
>  <Compound>
O=C(CCC(=O)NCCO)NCCO [(4), N,N'-bis-(2-hydroxyethyl)-succinamide]

>  <Observed Value>
> 10000 µg/mL

$$$$
>  <Compound>
O=C(NCCO)C(=O)NCCO [(5), N,N'-bis(2-hydroxyethyl)-oxalyldiamide]

>  <Observed Value>
> 10000 µg/mL

$$$$
>  <Compound>
O=C(NCCO)c1cc(=O)c2c(OCC(O)COc3cccc4oc(C(=O)NCCO)cc(=O)c34)cccc2o1

>  <Observed Value>
> 10000 µg/mL

$$$$
>  <Compound>
O=C(CC(=O)NCCO)NCCO [(7), N,N' -(2-hydroxyethyl)-malondiamide]

>  <Observed Value>
> 5000 µg/mL

$$$$
>  <Compound>
O=C(CCCC(=O)NCCO)NCCO

>  <Observed Value>
> 10000 µg/mL

$$$$
>  <Compound>
O=C(/C=C/C=C/C(=O)NCCO)NCCO

>  <Observed Value>
> 10000 µg/mL

$$$$
>  <Compound>
NC(CC(=O)NCCO)C(=O)NCCO (stereo not shown)

>  <Observed Value>
> 10000 µg/mL

$$$$
>  <Compound>
O=C(/C=C/C(=O)NCCO)NCCO [(1), N-fumaroylethanolamide]

>  <Observed Value>
< 20000 µg/mL

$$$$
>  <Compound>
O=C(/C=C/CCCCCCCCC(=O)NCCO)NCCO

>  <Observed Value>
> 10000 µg/mL

$$$$
>  <Compound>
O=C(/C=C/C(=O)N(CCO)CCO)N(CCO)CCO

>  <Observed Value>
> 10000 µg/mL

$$$$
>  <Compound>
CC(O)CNC(=O)/C=C/C(=O)NCC(C)O (stereo not shown)

>  <Observed Value>
> 10000 µg/mL

$$$$
>  <Compound>
O=C(NCCO)[C@H](O)[C@@H](O)C(=O)NCCO

>  <Observed Value>
> 10000 µg/mL

$$$$

###

Protocol: solubility in water
Assay type: physicochemical
Assay Conditions: at 95 °C
Measurement Kind: solubility

>  <Compound Smiles>
O=C(/C=C/CCCCCCCCC(=O)NCCO)NCCO

>  <Observed Value>
> 10000 µg/mL

$$$$
